molecular target: δ opioid receptor of the mouse isolated vas deferens (mouse), P32300; assay: cell-based or functional assay
Sequence (P32300 whole entry, stated change not applied): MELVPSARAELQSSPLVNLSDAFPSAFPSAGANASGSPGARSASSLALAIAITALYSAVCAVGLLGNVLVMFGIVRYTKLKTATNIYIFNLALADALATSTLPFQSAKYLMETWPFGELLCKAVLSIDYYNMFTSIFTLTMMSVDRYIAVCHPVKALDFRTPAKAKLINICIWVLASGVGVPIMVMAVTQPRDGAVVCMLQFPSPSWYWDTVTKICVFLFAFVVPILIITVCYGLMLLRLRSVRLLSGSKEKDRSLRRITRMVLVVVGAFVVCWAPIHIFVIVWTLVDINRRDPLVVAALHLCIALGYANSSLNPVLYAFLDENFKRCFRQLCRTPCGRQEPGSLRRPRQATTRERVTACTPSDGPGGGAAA
Bridge positions count the residues as written; N and C are the ends. Square brackets hold non-standard residues; d marks the D form. Ends that are not written are not given here. * marks the point of attachment. NH(3,5-(CF3)2-benzyl) = FC(F)(F)c1cc(CN*)cc(C(F)(F)F)c1; OBzl(3,5-(CF3)2) = FC(F)(F)c1cc(CO*)cc(C(F)(F)F)c1; Nle = CCCC[C@H](N)C(=O)O
endpoint.name: MVD (δ) IC50 (nM)
Give your result in nM as a bare value.

As a guide, the following entries are already answered.
binder: Y[dC]GF[Nle]PCW-{NH(3,5-(CF3)2-benzyl)} (disulfide 2-7) [Tyr[DCysGlyPheNleProCys]TrpNHBn(CF3)2]
endpoint.name: MVD (δ) IC50
quantitative.result: 85
//
binder: Y[dC]GFCPLW-{NH(3,5-(CF3)2-benzyl)} (disulfide 2-5) [Tyr[DCysGlyPheCys]ProLeuTrpNHBn(CF3)2]
endpoint.name: MVD (δ) IC50
quantitative.result: 73
//
binder: Y[dC]GF[dC]PLW-{NH(3,5-(CF3)2-benzyl)} (disulfide 2-5) [Tyr[DCysGlyPheDCys]ProLeuTrpNHBn(CF3)2]
endpoint.name: MVD (δ) IC50
quantitative.result: 8.3
//
binder: Y[dA]GFMPLW-{OBzl(3,5-(CF3)2)} [TyrDAlaGlyPheMetProLeuTrpOBn(CF3)2]
endpoint.name: MVD (δ) IC50
quantitative.result: 22

Consider the record given below.
Query :: // query MVD (δ) IC50 value for entry Y[dC]GF[Nle]P[dC]W-{NH(3,5-(CF3)2-benzyl)} (disulfide 2-7) [Tyr[DCysGlyPheNleProDCys]TrpNHBn(CF3)2]
Result :: 19

Origin of measurements: patent US8026218
